Quick reference: melting point of the listed items.

compound: O=C1CC(c2ccc(F)cc2)c2ccc(F)cc21 (configuration not stated)
melting point: 70 to 73 °C
--
compound: N#CC(C#N)=C1N(CCCN2CCCCC2)CCN1CCN1CCc2ccccc2C1
melting point: 101 to 102 °C
--
compound: CC1(C)CC(=O)OC(NCCCCN2CCN(c3ncccn3)CC2)N1 (configuration not stated)
melting point: 124 to 126 °C
--
compound: Cc1cc2c(c3ccc(=O)[nH]c13)OCC2C=O (configuration not stated)
melting point: 230 to 232 °C
--
compound: CCOC(=O)CC(=O)c1ccnc(F)c1
melting point: 66 to 67 °C
--
compound: Cn1c(C(=O)O)cc(=O)c2oc3ccc(Cl)cc3c(=O)c21
melting point: 241 to 242 °C
--
compound: CC1(C(=O)C2(C)COCOC2)COCOC1
melting point: 100 to 102 °C
--
compound: CCSc1ccc(-c2c(Cl)ncn2-c2ccc(S(C)(=O)=O)cc2)cc1
melting point: 181 to 185 °C
--
compound: O=C(NNS(=O)(=O)c1ccccc1)c1nccc2ccccc12
melting point: 198 to 200 °C
--
compound: O=C1C2=C(CCCC2)C(=O)N1c1cc(CO)c(Cl)cc1F
melting point: 135 to 137 °C
--
compound: O=c1c2cc(Br)ccc2c2cc3c(=O)c4cc(Br)ccc4c3cc12
melting point: > 300 °C
--
compound: CC(Oc1ncn(-c2cccc(C(F)(F)F)c2)n1)C(=O)O (configuration not stated)
melting point: 206 to 208 °C
--
compound: COC(=O)C=CC=CCSc1ccc(Cl)cc1
melting point: 75 to 77 °C
--
compound: Cn1nnc(-c2cccnc2)n1
melting point: 108 to 110 °C
--
compound: NC(=O)Cc1ccc(OCCN(CC(=O)c2ccc(OCc3ccccc3)c(OCc3ccccc3)c2)Cc2ccccc2)cc1
melting point: 99 to 101 °C
--
compound: CS(=O)(=O)c1ccc(C(=O)O)c([N+](=O)[O-])c1
melting point: 204 to 206 °C
--
compound: Cc1cc(CC(=O)N[C@H]2CC[C@H](CCN3CCC(c4cccc5c4CCO5)CC3)CC2)on1
melting point: 188 °C
--
compound: Cc1cccc2c1sc1nc(C(F)(F)F)nn12
melting point: 80 to 81 °C
--
compound: CCOC(=O)c1c2ccc(Cl)cc2c(-c2ccccc2)n1CCCO
melting point: 94 to 96 °C
--
compound: CCNC(=O)c1c(Cl)cccc1[Si](C)(C)C1CC2CCC1C2 (configuration not stated)
melting point: 124 to 125 °C
--
compound: CCNC=C(C(=O)C=Cc1ccccc1)C(=O)OC
melting point: 92 to 94 °C
--
compound: CC1CCC2(C)C(=CCC3C4CC(Cl)C(=O)C4(C)CCC32)C1 (configuration not stated)
melting point: 159 to 165 °C

* * *

compound: O=C(Nc1nc(-c2ccco2)c(-c2ccc(=O)n(Cc3ccccc3)c2)s1)c1ccncc1
melting point: 215 to 218 °C

compound: O=C1CCCN1[C@@H]1c2ccccc2OCC[C@H]1O (relative stereo)
melting point: 151 to 153 °C

compound: COC1CCC(OS(C)(=O)=O)C(CN=[N+]=[N-])O1 (stereo not given)
melting point: 54 to 56 °C

compound: CNC(=O)c1ccccc1Nc1nc(Nc2cccc3c2N(C)CCNC3=O)ncc1Cl
melting point: 282 to 284 °C

compound: O=c1[nH]c(=O)c2ccncc2[nH]1
melting point: 365 °C

compound: CC(=O)C=CC=Cc1ccc(OCc2ccccc2)cc1
melting point: 132 to 133 °C

compound: CC12CCC3c4ccc(C(=O)O)cc4CCC3C1CCC2C(=O)c1ccc2c(c1)OCO2 (stereo not given)
melting point: 235 to 237 °C

compound: CSc1sc(-c2nc(C)no2)c2c1C(=O)CC(C)(C)C2
melting point: 177 to 180 °C

compound: CCOC(=O)c1ccc(NC(=O)Nc2c(OC)ccc3c2C(C)(C)COC3(C)C)cc1
melting point: 147 to 149 °C

compound: CC1=C(C#N)S(=O)(=O)c2cc(F)cc(F)c2N1
melting point: 289 to 290 °C
